B1: Pistol ribozyme (parent)
chain: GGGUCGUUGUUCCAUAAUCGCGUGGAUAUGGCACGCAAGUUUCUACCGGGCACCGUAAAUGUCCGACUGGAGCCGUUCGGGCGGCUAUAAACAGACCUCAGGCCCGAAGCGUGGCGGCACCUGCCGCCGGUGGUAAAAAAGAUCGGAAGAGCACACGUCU

variants of: B1; assay: aptazyme ON/OFF ratio, guanine; higher = stronger switching; co-transcriptional cleavage with and without guanine
EXPERIMENTAL READOUT: aptazyme ON/OFF ratio
Just the number, please, no unit attached.

Consider the following illustrative entries.
>>> measured("G9A U10C U11G C13G")
1.18
>>> measured("U7G G9U U10C C12U C13G")
1.31
>>> measured("U7C U8G G9U U10A U11C C13A")
1.05
>>> measured("U7C U8A G9U U10G U11C C13G")
1.07
>>> measured("U7A U8C G9U U11G")
1.29

Quick note, aptazyme ON/OFF ratio for U7A U8C G9A U11C C12G C13U landed at 1.16

Field aptazyme ON/OFF ratio (entry U7G G9A U11A C12U C13G ) reads 1.17

Please fill in: aptazyme ON/OFF ratio reported for U7G U8A G9C U11A C12G C13A = 1.04

The origin of these recorded values is the RNAGym collection of RNA variant scans (doi:10.1021/acssynbio.7b00057).
